Biological target: UniProtKB P08581
Sequence (P08581 25-1390): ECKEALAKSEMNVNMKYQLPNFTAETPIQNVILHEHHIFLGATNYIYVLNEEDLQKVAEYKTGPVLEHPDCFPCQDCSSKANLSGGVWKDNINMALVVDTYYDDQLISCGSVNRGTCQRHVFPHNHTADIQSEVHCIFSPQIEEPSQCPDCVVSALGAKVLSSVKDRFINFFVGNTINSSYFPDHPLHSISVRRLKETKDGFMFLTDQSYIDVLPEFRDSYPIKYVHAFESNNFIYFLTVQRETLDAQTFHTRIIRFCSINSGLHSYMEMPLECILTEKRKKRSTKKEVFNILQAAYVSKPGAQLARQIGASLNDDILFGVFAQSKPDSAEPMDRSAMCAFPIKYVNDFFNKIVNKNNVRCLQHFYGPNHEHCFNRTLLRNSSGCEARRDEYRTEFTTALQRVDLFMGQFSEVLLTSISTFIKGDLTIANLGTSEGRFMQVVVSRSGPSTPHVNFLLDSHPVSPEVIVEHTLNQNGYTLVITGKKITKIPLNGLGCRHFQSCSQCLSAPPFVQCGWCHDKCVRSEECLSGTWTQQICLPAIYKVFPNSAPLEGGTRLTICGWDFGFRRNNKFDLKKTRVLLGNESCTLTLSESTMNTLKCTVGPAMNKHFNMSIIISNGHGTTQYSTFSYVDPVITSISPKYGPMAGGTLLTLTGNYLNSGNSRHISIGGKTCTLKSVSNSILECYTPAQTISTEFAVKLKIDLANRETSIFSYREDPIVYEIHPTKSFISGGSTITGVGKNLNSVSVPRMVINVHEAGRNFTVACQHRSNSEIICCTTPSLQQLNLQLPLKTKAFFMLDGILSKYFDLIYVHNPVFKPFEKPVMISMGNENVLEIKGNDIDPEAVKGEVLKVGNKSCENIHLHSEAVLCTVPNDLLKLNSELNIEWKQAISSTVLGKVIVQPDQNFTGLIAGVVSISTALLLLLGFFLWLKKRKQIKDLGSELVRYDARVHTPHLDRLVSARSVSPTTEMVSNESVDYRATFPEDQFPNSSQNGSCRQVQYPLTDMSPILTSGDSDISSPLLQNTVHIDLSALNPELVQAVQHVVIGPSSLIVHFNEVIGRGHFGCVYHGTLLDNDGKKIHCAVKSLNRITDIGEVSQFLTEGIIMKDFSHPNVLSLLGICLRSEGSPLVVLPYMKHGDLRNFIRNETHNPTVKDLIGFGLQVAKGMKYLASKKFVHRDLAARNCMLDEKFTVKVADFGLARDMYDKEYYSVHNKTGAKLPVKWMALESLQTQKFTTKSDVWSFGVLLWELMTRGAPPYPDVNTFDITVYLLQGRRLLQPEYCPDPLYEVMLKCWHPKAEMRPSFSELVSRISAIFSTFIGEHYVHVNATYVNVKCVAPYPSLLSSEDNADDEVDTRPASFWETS
Experiment: Enzymatic assay (ADP-Glo kinase reaction), c-MET
Format: biochemical
Conditions: 10 μM ATP, 60 min, ADP-GLO luminescence
Experimental: All the kinase reactions were performed in 5 μL using tyrosine kinase buffer with 0.2 μg/μL poly (Glu4, Tyr1) substrate, 10 μM ATP, serial dilution of the inhibitor, and incubated at room temperature for 60 min. After the indicated incubation times, 5 μL ADP-GLO™ reagent (Promega, Madison, WI) was added to the reactions and the plate was incubated at room temperature for 40 min. […] All 384-well assay plates were read using a GLOMAX™ Discover Microplate Luminometer from Promega (Madison, WI). […]
assay_readout: IC50

chem_smiles	result
CC(C)(C#Cc1c(Oc2ccc(NC(=O)c3cn(C4CCOCC4)c(=O)n(-c4ccc(F)cc4)c3=O)cc2F)ccnc1N)N1CCNCC1	< 100 nM
CN(C)C(=O)Cn1cc(C(=O)Nc2ccc(Oc3ccnc(N)c3C#CC(C)(C)N3CCOCC3)c(F)c2)c(=O)n(-c2ccc(F)cc2)c1=O	< 1000 nM
Cc1nc(Cn2cc(C(=O)Nc3ccc(Oc4ccnc(N)c4C#CCC4CCNCC4)c(F)c3)c(=O)n(-c3ccc(F)cc3)c2=O)cs1	< 10 nM
CN(C)C(=O)Cn1cc(C(=O)Nc2ccc(Oc3ccnc(N)c3C#CCC3CCNCC3)c(F)c2)c(=O)n(-c2ccc(F)cc2)c1=O	< 10 nM
COCCN1CCN(C(=O)CCc2c(Oc3ccc(NC(=O)c4cn(C(C)C)c(=O)n(-c5ccc(F)cc5)c4=O)cc3F)ccnc2N)CC1	< 10000 nM
Nc1nccc(Oc2ccc(NC(=O)c3c[nH]c(=O)n(-c4ccc(F)cc4)c3=O)cc2F)c1C#CCN1CCOCC1	< 100 nM
CN1CCN(C(C)(C)C#Cc2c(Oc3ccc(NC(=O)c4cn(CC(=O)N(C)C)c(=O)n(-c5ccc(F)cc5)c4=O)cc3F)ccnc2N)CC1	< 10000 nM
Cc1nc(Cn2cc(C(=O)Nc3ccc(Oc4ccnc(N)c4C#CC(C)(C)N4CCOCC4)c(F)c3)c(=O)n(-c3ccc(F)cc3)c2=O)cs1	< 100 nM
Cn1nc(C(=O)Nc2ccc(Oc3ccnc(N)c3C#CC(C)(C)N3CCOCC3)c(F)c2)c(=O)n(-c2ccc(F)cc2)c1=O	< 100 nM
CC(C)(C#Cc1c(Oc2ccc(NC(=O)c3c[nH]c(=O)n(-c4ccc(F)cc4)c3=O)cc2F)ccnc1N)N1CCOCC1	< 100 nM
Cn1nc(C(=O)Nc2ccc(Oc3ccnc(N)c3C#CC(C)(C)N3CCNCC3)c(F)c2)c(=O)n(-c2ccc(F)cc2)c1=O	< 1000 nM
CC(C)n1cc(C(=O)Nc2ccc(Oc3ccnc(N)c3C#CC3CCN(C)CC3)c(F)c2)c(=O)n(-c2ccc(F)cc2)c1=O	< 1000 nM
CC(C)n1cc(C(=O)Nc2ccc(Oc3ccnc(N)c3-c3cnn(C)c3)c(F)c2)c(=O)n(-c2ccc(F)cc2)c1=O	< 10 nM
